Attribute: kon
# testedTarget: T1, hGCGR-hFc (human)
# T1 construct: also called REGN316
# T1 sequence (chain, as listed by the source limits assumed): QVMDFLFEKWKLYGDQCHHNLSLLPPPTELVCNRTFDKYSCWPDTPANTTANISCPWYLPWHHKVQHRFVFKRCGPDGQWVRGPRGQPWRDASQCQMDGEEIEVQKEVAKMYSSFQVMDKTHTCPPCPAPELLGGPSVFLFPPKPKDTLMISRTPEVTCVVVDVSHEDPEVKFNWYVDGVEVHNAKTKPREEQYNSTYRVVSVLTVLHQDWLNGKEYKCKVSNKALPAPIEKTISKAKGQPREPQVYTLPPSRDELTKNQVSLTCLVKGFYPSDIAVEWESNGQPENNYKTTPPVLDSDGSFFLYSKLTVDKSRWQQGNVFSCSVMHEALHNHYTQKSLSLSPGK
# protocol: SPR Biacore T100, 25C, mAb captured, antigen flowed
Hi, when you answer, please include the unit after the number. Thanks!

For orientation, consider the following solved cases.
Look up kon: H4H1321P (antibody, V domains shown, Fully human anti-GCGR antibody; the controls are called isotype-matched hIgG4) VH: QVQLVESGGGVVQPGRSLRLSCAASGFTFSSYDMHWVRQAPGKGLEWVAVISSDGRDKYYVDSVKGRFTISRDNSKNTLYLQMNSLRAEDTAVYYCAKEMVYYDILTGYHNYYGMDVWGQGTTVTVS VL: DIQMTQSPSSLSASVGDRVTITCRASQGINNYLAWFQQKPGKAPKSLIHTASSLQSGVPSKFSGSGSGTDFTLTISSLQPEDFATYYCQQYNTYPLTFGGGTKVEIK
1.2e+06 M⁻¹ s⁻¹

Look up kon: H4H1328P (antibody, V domains shown, Fully human anti-GCGR antibody; the controls are called isotype-matched hIgG4) VH: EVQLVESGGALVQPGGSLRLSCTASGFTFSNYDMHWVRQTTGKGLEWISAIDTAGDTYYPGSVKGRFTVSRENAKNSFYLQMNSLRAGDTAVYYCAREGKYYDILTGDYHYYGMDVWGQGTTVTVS VL: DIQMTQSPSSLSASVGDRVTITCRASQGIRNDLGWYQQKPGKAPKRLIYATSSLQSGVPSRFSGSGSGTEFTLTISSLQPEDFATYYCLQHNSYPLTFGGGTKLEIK
1.13e+06 M⁻¹ s⁻¹

Please examine the following record next.
Look up kon: H4H1327P (antibody, V domains shown, also called anti-GCGR (hIgG4) antibody designated H4H1327P) VH: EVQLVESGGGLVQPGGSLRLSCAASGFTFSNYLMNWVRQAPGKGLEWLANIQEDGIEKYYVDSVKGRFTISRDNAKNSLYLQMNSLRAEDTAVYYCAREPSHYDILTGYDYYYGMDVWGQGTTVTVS VL: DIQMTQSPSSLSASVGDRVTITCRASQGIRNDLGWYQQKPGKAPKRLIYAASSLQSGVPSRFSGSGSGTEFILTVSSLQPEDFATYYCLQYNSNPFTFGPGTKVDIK
1.21e+06 M⁻¹ s⁻¹
